// provenance: ChEMBL document CHEMBL4152223

- Tested on: Mycobacterium kansasii
- test.name: Antimycobacterial activity against Mycobacterium kansasii 235/80 after 7 days
- Format: functional
- particulars: 235/80, 168 h
quantity.kind: MIC (µM)
// return numeric value only (unit: µM, not printed)

[ask] // query MIC value for entry CCCCCCCCCCCCCCCNC(=O)NNC(=O)c1ccncc1
[reply] 32

[ask] Value lookup for MIC; key = CCCCCCCCCNC(=O)NNC(=O)c1ccncc1
[reply] 32

[ask] For CCCCCCCCCCCCCNC(=O)NNC(=O)c1ccncc1 , what is its reported MIC?
[reply] 16

[ask] Form field: reported MIC of CCCCCCCCCNc1nnc(-c2ccncc2)o1
[reply] 125

[ask] What measured MIC goes with CCCCCCCNC(=O)NNC(=O)c1ccncc1 ?
[reply] 62.5

[ask] Look up MIC for this molecule: CCCCNc1nnc(-c2ccncc2)o1
[reply] 500

[ask] Recorded MIC for CCCCCCNc1nnc(-c2ccncc2)o1 , please?
[reply] 250

[ask] Could you tell me which MIC is on file for CCNC(=O)NNC(=O)c1ccncc1 ?
[reply] 32

[ask] What MIC value was documented for this molecule, CCCCCCCCCCCNc1nnc(-c2ccncc2)o1 ?
[reply] 8

[ask] Request the reported MIC associated with CCCCCCCNc1nnc(-c2ccncc2)o1
[reply] 250

[ask] Quick check: MIC of CCCCCNC(=O)NNC(=O)c1ccncc1 ?
[reply] 62.5

[ask] Would you mind telling me what MIC value was observed for CCNc1nnc(-c2ccncc2)o1 ?
[reply] 1000

[ask] // lookup MIC for CCCCCNc1nnc(-c2ccncc2)o1
[reply] 500

[ask] Record request: MIC value, item CCCNC(=O)NNC(=O)c1ccncc1
[reply] 4

[ask] Could you share which MIC value was measured for CNc1nnc(-c2ccncc2)o1 ?
[reply] 500

[ask] What measured MIC goes with CCCCCCCCCCCCNc1nnc(-c2ccncc2)o1 ?
[reply] 125

[ask] # query: MIC of entry CCCCCCCCCCCCCCNC(=O)NNC(=O)c1ccncc1
[reply] 32

[ask] Which MIC reading was recorded for the molecule CCCCCCCCCCCCCCCCCCNc1nnc(-c2ccncc2)o1 ?
[reply] 250

[ask] If you can, please state the reported MIC value of CCCCCCNC(=O)NNC(=O)c1ccncc1 .
[reply] 250

[ask] What value of MIC has been recorded for this entry: CCCCCCCCCCCNC(=O)NNC(=O)c1ccncc1
[reply] 16

[ask] Form field: reported MIC of CCCCCCCCNC(=O)NNC(=O)c1ccncc1
[reply] 32

[ask] I am curious: what MIC value has been reported for CCCCCCCCCCCCCCCCNC(=O)NNC(=O)c1ccncc1 ?
[reply] 32

* * *

- test.name: Selectivity index, ratio of IC50 for human HepG2 cells to MIC for Mycobacterium kansasii 6509/96
- Format: toxicity
- particulars: read-out: Selectivity Index
Task for the reader: assign each of the following compounds its reported selectivity ratio.

[ask] Give the measured selectivity ratio of CCCNC(=O)NNC(=O)c1ccncc1 .
[reply] > 312

[ask] What selectivity ratio value was documented for this compound, NNC(=O)c1ccncc1 ?
[reply] > 625

[ask] May I ask what selectivity ratio has been recorded for CCNC(=O)NNC(=O)c1ccncc1 ?
[reply] > 64

[ask] Which selectivity ratio is listed for CCCCCNC(=O)NNC(=O)c1ccncc1 ?
[reply] > 32
